PROTOCOL NOTES: acute oral toxicity (LD50) in mice
CONDITION SET: mouse, in vivo, po
QUANTITY: LD50

# COMPOUND, VAL
records = [
    ("CN1CCN(C(=O)OC2c3nccnc3C(=O)N2c2ccc(Cl)cn2)CC1 (racemic) [zopiclone, reference compound]", "~850 mg/kg"),
]
